Target: Molt/4F dThd kinase (Homo sapiens)
Construct: endogenous in cells
Sequence (P04183 whole entry): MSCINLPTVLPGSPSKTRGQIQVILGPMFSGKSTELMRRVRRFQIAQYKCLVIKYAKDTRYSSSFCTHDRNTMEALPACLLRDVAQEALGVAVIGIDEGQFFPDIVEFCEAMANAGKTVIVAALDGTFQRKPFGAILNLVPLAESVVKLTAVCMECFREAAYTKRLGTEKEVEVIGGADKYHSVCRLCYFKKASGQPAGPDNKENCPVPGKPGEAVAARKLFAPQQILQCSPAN
Assay: Inhibition of dThd kinase (Lineweaver-Burk)
Settings: dThd kinase, substrate (2-14C)dThd
pKi: −log10 of the molar value.
readout_kind: pKi

[[record]]
compound_smiles = "CCc1cn([C@H]2C[C@H](N=[N+]=[N-])[C@@H](CO)O2)c(=O)[nH]c1=O"
readout_kind = "pKi"
qualifier_symbol = "="
endpoint_value = 3.76

[[record]]
compound_smiles = "CCc1cn([C@H]2C[C@H](F)[C@@H](CO)O2)c(=O)[nH]c1=O"
readout_kind = "pKi"
qualifier_symbol = "="
endpoint_value = 3.58

[[record]]
compound_smiles = "CCc1cn([C@H]2CC[C@@H](CO)O2)c(=O)[nH]c1=O"
readout_kind = "pKi"
qualifier_symbol = "<"
endpoint_value = 3.12

[[record]]
compound_smiles = "[N-]=[N+]=N[C@H]1C[C@H](n2ccc(=O)[nH]c2=O)O[C@@H]1CO"
readout_kind = "pKi"
qualifier_symbol = "="
endpoint_value = 3.65

[[record]]
compound_smiles = "O=c1ccn([C@H]2CC[C@@H](CO)O2)c(=O)[nH]1"
readout_kind = "pKi"
qualifier_symbol = "<"
endpoint_value = 3.00

[[record]]
compound_smiles = "O=c1ccn([C@H]2C[C@H](F)[C@@H](CO)O2)c(=O)[nH]1"
readout_kind = "pKi"
qualifier_symbol = "="
endpoint_value = 3.08


---

Tested on: Molt/4F
Experiment: Cytostatic effect (cell proliferation, Coulter count)
Type: cell-based
Settings: Homo sapiens, cell number reduced by 50%, 68-72 hours, read-out: ID50 Molt/4F
pIC50: −log10 of the molar value.
readout_kind: pIC50

[[record]]
compound = "CCc1cn([C@H]2CC[C@@H](CO)O2)c(=O)[nH]c1=O [ddEtUrd, 2′,3′-Dideoxy-5-ethyluridine]"
readout_kind = "pIC50"
endpoint_value = "< 3.00"

[[record]]
compound = "Nc1ccn([C@H]2CC[C@@H](CO)O2)c(=O)n1 [ddCyd, 2′,3′-Dideoxycytidine]"
readout_kind = "pIC50"
endpoint_value = 5.15

[[record]]
compound = "O=c1ccn([C@H]2C[C@H](F)[C@@H](CO)O2)c(=O)[nH]1 [FddUrd, 3′-fluoro-2′,3′-dideoxyuridine]"
readout_kind = "pIC50"
endpoint_value = "≤ 3.00"

[[record]]
compound = "[N-]=[N+]=N[C@H]1C[C@H](n2ccc(=O)[nH]c2=O)O[C@@H]1CO [AzddUrd, 3′-azido-2′,3′-dideoxyuridine]"
readout_kind = "pIC50"
endpoint_value = "< 3.00"

[[record]]
compound = "CCc1cn([C@H]2C[C@H](N=[N+]=[N-])[C@@H](CO)O2)c(=O)[nH]c1=O [AzddEtUrd, 3′-azido-2′,3′-dideoxy-5-ethyluridine]"
readout_kind = "pIC50"
endpoint_value = "< 3.00"

[[record]]
compound = "Nc1ccn([C@H]2C[C@H](F)[C@@H](CO)O2)c(=O)n1 [FddCyd, 3′-fluoro-2′,3′-dideoxycytidine]"
readout_kind = "pIC50"
endpoint_value = 4.62

[[record]]
compound = "O=c1ccn([C@H]2CC[C@@H](CO)O2)c(=O)[nH]1 [ddUrd, 2′-3′-dideoxyuridine]"
readout_kind = "pIC50"
endpoint_value = "< 3.00"

[[record]]
compound = "CCc1cn([C@H]2C[C@H](F)[C@@H](CO)O2)c(=O)[nH]c1=O [FddEtUrd, 3′-fluoro-2′,3′-dideoxy-5-ethyluridine]"
readout_kind = "pIC50"
endpoint_value = "< 3.00"


---

Test system: HIV
Test: Inhibition of HIV-induced cytopathogenicity in MT4 cells
Assay type: cell-based
Details: 50% reduction in the cytopathic effect of HIV for MT4 cells, 5 days; read-out: HIV-induced cyto-pathogenicity ED50
Collected EC50 values appear next to each entry.
readout_kind: EC50 (µM)

[[record]]
compound_smiles = "CCc1cn([C@H]2C[C@H](N=[N+]=[N-])[C@@H](CO)O2)c(=O)[nH]c1=O"
assay_system = "HIV"
qualifier_symbol = "="
endpoint_value = 64

[[record]]
compound_smiles = "CCc1cn([C@H]2CC[C@@H](CO)O2)c(=O)[nH]c1=O"
assay_system = "HIV"
qualifier_symbol = ">"
endpoint_value = 625

[[record]]
compound_smiles = "CCc1cn([C@H]2C[C@H](F)[C@@H](CO)O2)c(=O)[nH]c1=O"
assay_system = "HIV"
qualifier_symbol = "="
endpoint_value = 330

[[record]]
compound_smiles = "O=c1ccn([C@H]2CC[C@@H](CO)O2)c(=O)[nH]1"
assay_system = "HIV"
qualifier_symbol = "="
endpoint_value = 210


---

Collected Ki/Km values appear next to each entry.
Biological target: Molt/4F dThd kinase (Homo sapiens)
Construct: endogenous in cells; host or cells: Molt/4F cells (sonicated extract, 30-70% ammonium sulfate fraction, dialyzed)
Test: Inhibition of dThd kinase (Lineweaver-Burk)
Type: biochemical
Details: dThd kinase; Km 2.5 to 6.6 µM
readout_kind: Ki/Km

[[record]]
compound_smiles = "CCc1cn([C@H]2C[C@H](F)[C@@H](CO)O2)c(=O)[nH]c1=O"
qualifier_symbol = "="
endpoint_value = 72

[[record]]
compound_smiles = "CCc1cn([C@H]2CC[C@@H](CO)O2)c(=O)[nH]c1=O"
qualifier_symbol = ">"
endpoint_value = 200

[[record]]
compound_smiles = "CCc1cn([C@H]2C[C@H](N=[N+]=[N-])[C@@H](CO)O2)c(=O)[nH]c1=O"
qualifier_symbol = "="
endpoint_value = 28

[[record]]
compound_smiles = "O=c1ccn([C@H]2C[C@H](F)[C@@H](CO)O2)c(=O)[nH]1"
qualifier_symbol = "="
endpoint_value = 171


---

Collected HIV-induced cyto-pathogenicity S.I. values appear next to each entry.
Tested on: HIV
Experiment: Inhibition of HIV-induced cytopathogenicity in MT4 cells
Assay type: cell-based
Settings: Selectivity index or ratio of CD50 to ED50, MT4 cells
readout_kind: HIV-induced cyto-pathogenicity S.I.

[[record]]
molecule = "CCc1cn([C@H]2C[C@H](F)[C@@H](CO)O2)c(=O)[nH]c1=O [FddEtUrd, 3′-fluoro-2′,3′-dideoxy-5-ethyluridine]"
assay_system = "HIV"
endpoint_value = ">1.9"

[[record]]
molecule = "[N-]=[N+]=N[C@H]1C[C@H](n2ccc(=O)[nH]c2=O)O[C@@H]1CO [AzddUrd, 3′-azido-2′,3′-dideoxyuridine]"
assay_system = "HIV"
endpoint_value = 677

[[record]]
molecule = "CCc1cn([C@H]2C[C@H](N=[N+]=[N-])[C@@H](CO)O2)c(=O)[nH]c1=O [AzddEtUrd, 3′-azido-2′,3′-dideoxy-5-ethyluridine]"
assay_system = "HIV"
endpoint_value = 6.5

[[record]]
molecule = "Nc1ccn([C@H]2CC[C@@H](CO)O2)c(=O)n1 [ddCyd, 2′,3′-Dideoxycytidine]"
assay_system = "HIV"
endpoint_value = 120

[[record]]
molecule = "O=c1ccn([C@H]2C[C@H](F)[C@@H](CO)O2)c(=O)[nH]1 [FddUrd, 3′-fluoro-2′,3′-dideoxyuridine]"
assay_system = "HIV"
endpoint_value = 400

[[record]]
molecule = "Nc1ccn([C@H]2C[C@H](F)[C@@H](CO)O2)c(=O)n1 [FddCyd, 3′-fluoro-2′,3′-dideoxycytidine]"
assay_system = "HIV"
endpoint_value = 1.6

[[record]]
molecule = "O=c1ccn([C@H]2CC[C@@H](CO)O2)c(=O)[nH]1 [ddUrd, 2′-3′-dideoxyuridine]"
assay_system = "HIV"
endpoint_value = "> 3"


---

Collected IC50 values appear next to each entry.
System: Raji/TK-
Experiment: Cytostatic effect (cell proliferation, Coulter count)
Format: cell-based
Conditions: Homo sapiens, cell number reduced by 50%, 68-72 hours, read-out: ID50 Raji/TK-
readout_kind: IC50

[[record]]
compound_smiles = "O=c1ccn([C@H]2CC[C@@H](CO)O2)c(=O)[nH]1"
endpoint_value = "> 1000 µM"

[[record]]
compound_smiles = "Nc1ccn([C@H]2C[C@H](F)[C@@H](CO)O2)c(=O)n1"
endpoint_value = "118 µM"

[[record]]
compound_smiles = "O=c1ccn([C@H]2C[C@H](F)[C@@H](CO)O2)c(=O)[nH]1"
endpoint_value = "> 1000 µM"

[[record]]
compound_smiles = "CCc1cn([C@H]2C[C@H](F)[C@@H](CO)O2)c(=O)[nH]c1=O"
endpoint_value = "> 1000 µM"


---

Test system: MOLT/4F CELL DNA
Experiment: Incorporation of radiolabelled precursors into Molt/4F cell DNA
Assay type: cell-based, human
Conditions: Homo sapiens; Molt/4F cell DNA, 20-24 hours; read-out: ID50 (methyl-3H)dThd incorporation
pIC50: −log10 of the molar value.
Collected pIC50 values appear next to each entry.
readout_kind: pIC50

[[record]]
compound = "Nc1ccn([C@H]2C[C@H](F)[C@@H](CO)O2)c(=O)n1 [FddCyd, 3′-fluoro-2′,3′-dideoxycytidine]"
readout_kind = "pIC50"
endpoint_value = "< 3.00"

[[record]]
compound = "O=c1ccn([C@H]2CC[C@@H](CO)O2)c(=O)[nH]1 [ddUrd, 2′-3′-dideoxyuridine]"
readout_kind = "pIC50"
endpoint_value = "< 3.00"

[[record]]
compound = "CCc1cn([C@H]2CC[C@@H](CO)O2)c(=O)[nH]c1=O [ddEtUrd, 2′,3′-Dideoxy-5-ethyluridine]"
readout_kind = "pIC50"
endpoint_value = "< 3.00"

[[record]]
compound = "Nc1ccn([C@H]2CC[C@@H](CO)O2)c(=O)n1 [ddCyd, 2′,3′-Dideoxycytidine]"
readout_kind = "pIC50"
endpoint_value = 3.12

[[record]]
compound = "[N-]=[N+]=N[C@H]1C[C@H](n2ccc(=O)[nH]c2=O)O[C@@H]1CO [AzddUrd, 3′-azido-2′,3′-dideoxyuridine]"
readout_kind = "pIC50"
endpoint_value = "< 3.00"

[[record]]
compound = "O=c1ccn([C@H]2C[C@H](F)[C@@H](CO)O2)c(=O)[nH]1 [FddUrd, 3′-fluoro-2′,3′-dideoxyuridine]"
readout_kind = "pIC50"
endpoint_value = "< 3.00"

[[record]]
compound = "CCc1cn([C@H]2C[C@H](N=[N+]=[N-])[C@@H](CO)O2)c(=O)[nH]c1=O [AzddEtUrd, 3′-azido-2′,3′-dideoxy-5-ethyluridine]"
readout_kind = "pIC50"
endpoint_value = "< 3.00"

[[record]]
compound = "CCc1cn([C@H]2C[C@H](F)[C@@H](CO)O2)c(=O)[nH]c1=O [FddEtUrd, 3′-fluoro-2′,3′-dideoxy-5-ethyluridine]"
readout_kind = "pIC50"
endpoint_value = "< 3.00"

